molecular target: HLA-A*23:01; test: IEDB peptide-MHC binding, purified MHC/competitive/radioactivity; filed as Kd, often an IC50 or EC50 that approximates it; bounds were set here for any values at or beyond the usual limits of such assays; conditions: source organism: SARS coronavirus Tor2
Attribute Measured: Kd

Provide measured Kd value, entry: ISMMGFKMNY ≥ 31 µM

Provide measured Kd value, entry: LIDLQELGKY ≥ 70 µM

Provide measured Kd value, entry: NGDVVAIDY ≥ 77.8 µM

Provide measured Kd value, entry: SSQGSEYDY ≥ 77.8 µM

Provide measured Kd value, entry: AFLIGANYL ≥ 55.3 µM

Provide measured Kd value, entry: TSNPKTPKY ≥ 77.8 µM

Provide measured Kd value, entry: AWPLIVTAL ≥ 49 µM

Provide measured Kd value, entry: CTLSEQLDY ≥ 77.8 µM

Provide measured Kd value, entry: TCDGNTFTY ≥ 77.8 µM
